Below, each of the variants is paired with its reported yeast fitness value.
B1: tRNA (parent)
chain: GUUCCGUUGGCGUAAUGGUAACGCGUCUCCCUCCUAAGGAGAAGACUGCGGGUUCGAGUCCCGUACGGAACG

Variants of: B1
Assay: yeast fitness relative to wild type (ratio to wild type); higher = fitter; tRNA-Arg(CCU), competitive growth, 37 C, YPD
Variants at the floor of the assay were thinned out.
I only need the number, thanks.

Ask: Please look up its yeast fitness: U3C C62U A69C
Result: 0.756

Ask: yeast fitness lookup needed for A14C A40G , thanks.
Result: 0.596

Ask: Please give the measured yeast fitness for this variant: C24U A69G
Result: 0.998

Ask: Which yeast fitness is reported for this variant? A21U C33G A42G G44A
Result: 0.541

Ask: Reported yeast fitness for A21C C27U A57G : what is it?
Result: 0.79
